# Test system: HOP-92
# test: NCI tumour cell line growth inhibition, 48 h
The source made the active and inactive calls. Cut-off read from the data, not from the text of the source: active = GI50 up to about 1.1 µM and inactive = higher.

{"molecule": "Cc1cc(S(=O)(=O)Nc2nc(N)nc(N3CCOCC3)n2)c(SCC(=O)O)cc1Cl", "GI50": "> 10 µM (inactive)"}
{"molecule": "CC(C)(C)C1(O)Cc2ccccc2C(=O)O1 (stereo unspecified)", "GI50": "> 100 µM (inactive)"}
{"molecule": "COc1ccc(-c2nnc(-c3c(C)n(C)n(-c4ccccc4)c3=O)o2)cc1", "GI50": "> 100 µM (inactive)"}
{"molecule": "CC1(O)Oc2ccc3ccccc3c2C=C1C(N)=O (stereo unspecified)", "GI50": "77.1 µM (inactive)"}
{"molecule": "COC1CC(OS(=O)(=O)c2ccc(C)cc2)C(OC(=O)c2ccccc2)C(C)O1 (stereo unspecified)", "GI50": "99.1 µM (inactive)"}
{"molecule": "OC1C2[C@@H](O)CCCN2C[C@@H](O)[C@H]1O (stereo partly specified)", "GI50": "> 100 µM (inactive)"}
{"molecule": "CN(CCNC(=O)c1nn(-c2ccc(Cl)cc2Cl)c2c1Cc1ccccc1-2)CCNC(=O)c1nn(-c2ccc(Cl)cc2Cl)c2c1Cc1ccccc1-2", "GI50": "1.99 µM (inactive)"}
{"molecule": "COc1ccc(C2=Nc3ccccc3NC(=O)C2)cc1", "GI50": "21 µM (inactive)"}
{"molecule": "CN1CCc2c(sc3nc(S)nc(S)c23)C1", "GI50": "> 100 µM (inactive)"}
{"molecule": "N#Cc1ccnc(C(=O)N2CCCC2C(=O)O)c1 (stereo unspecified)", "GI50": "> 100 µM (inactive)"}
{"molecule": "CCNC1=C(NC(=O)c2ccc(OC)cc2)C(=O)c2ccccc2C1=O", "GI50": "> 100 µM (inactive)"}

---

Listed here are compounds together with their documented GI50.
# Test system: UO-31
# test: NCI tumour cell line growth inhibition, 48 h
Calls of active or inactive are those of the source. Rule as the data show it: active = GI50 up to about 1.1 µM and inactive = higher.
measureName: GI50

{"compound": "C[C@@]1(c2ccccc2)O[C@@H]2C[C@H]3[C@@H]4CCC5=CC(=O)C=C[C@]5(C)[C@@]4(F)[C@@H](O)C[C@]3(C)[C@]2(C(=O)CO)O1 [AMCINAFIDE]", "measureName": "GI50", "measuredResult": "18.1 µM (inactive)"}
{"compound": "C/C=C/C=N/N(C(=O)c1cc([N+](=O)[O-])cc([N+](=O)[O-])c1)C1=NN=C(c2ccccc2)C(c2ccccc2)N1 (configuration not stated)", "measureName": "GI50", "measuredResult": "43.9 µM (inactive)"}
{"compound": "O=C1c2ccccc2CC12Cc1cc3c(cc1C2=O)CCC3 (configuration not stated)", "measureName": "GI50", "measuredResult": "> 100 µM (inactive)"}
{"compound": "O=C(O)CSc1nnc(-c2ccccc2)[nH]1", "measureName": "GI50", "measuredResult": "> 100 µM (inactive)"}
{"compound": "O=C(NCCCN1CCN(CCCNC(=O)c2cccc3ccccc23)CC1)c1cccc2ccccc12", "measureName": "GI50", "measuredResult": "32.3 µM (inactive)"}
{"compound": "COc1ccc(OC)c2c1C=C[C@H](C1(C)SCCS1)C2C(C)=O (some centres not stated)", "measureName": "GI50", "measuredResult": "24.2 µM (inactive)"}
{"compound": "COc1ccc(CNc2nc3ccccc3nc2-c2cccs2)cc1", "measureName": "GI50", "measuredResult": "15.4 µM (inactive)"}
{"compound": "Cc1ccc(Nc2nc(C)c(C(=O)CC(=O)C(=O)Nc3ccc(Cl)cc3)s2)cc1", "measureName": "GI50", "measuredResult": "> 100 µM (inactive)"}
{"compound": "CC(=O)Oc1c(Br)ccc2cc(C(Br)Br)c(C(=O)c3ccccc3)nc12", "measureName": "GI50", "measuredResult": "19.2 µM (inactive)"}
{"compound": "NCC(=O)NC(CO)C(=O)O (configuration not stated)", "measureName": "GI50", "measuredResult": "> 100 µM (inactive)"}
{"compound": "COc1ccc(C(=O)N2c3ccccc3N(C)n3cccc3C2CC(=O)O)cc1 (configuration not stated)", "measureName": "GI50", "measuredResult": "> 100 µM (inactive)"}
{"compound": "COC(=O)c1ccc2c(c1)C(NC(C)=O)CCc1cc(OC)c(OC)c(OC)c1-2 (configuration not stated)", "measureName": "GI50", "measuredResult": "0.0721 µM (active)"}
{"compound": "O=C1c2ccc(O)cc2C(=O)c2ccc(O)cc21", "measureName": "GI50", "measuredResult": "24.3 µM (inactive)"}
{"compound": "CSC(=S)NN=C1CCCC1.CSC(=S)NN=C1CCCC1.[Zn+2]", "measureName": "GI50", "measuredResult": "13.4 µM (inactive)"}
{"compound": "COc1ccccc1NC(=S)N/N=C/c1ccccn1", "measureName": "GI50", "measuredResult": "0.296 µM (active)"}
{"compound": "Cc1c(S(=O)(=O)N/C(N)=N/c2ccc(Cl)cc2)sc2ccc(Cl)cc12", "measureName": "GI50", "measuredResult": "15.3 µM (inactive)"}
{"compound": "COc1cc(/C=N/c2nc3cc4sc(/N=C/c5cc(OC)c(OC)c(OC)c5)nc4cc3s2)cc(OC)c1OC", "measureName": "GI50", "measuredResult": "62.8 µM (inactive)"}

---

# System: UO-31
# test: NCI tumour cell line growth inhibition, 48 h
The source made the active and inactive calls. No stated cut-off is given here; in the data, active = GI50 up to about 1.1 µM and inactive = higher.
Possible outcomes: 1 (active), -1 (inactive)

{"molecule": "Cc1cc2c(Br)cc(Br)c(O)c2nc1C(=O)c1ccccc1", "assignedClass": -1}
{"molecule": "c1ccc(CCN(Cc2nc3ccccc3[nH]2)Cc2nc3ccccc3[nH]2)cc1", "assignedClass": -1}
{"molecule": "COc1ccc(-c2nnc(-c3c(C)n(C)n(-c4ccccc4)c3=O)o2)cc1", "assignedClass": -1}
{"molecule": "C[N+](C)(C)CC(=O)N/N=C(\\Cc1nc2ccc([N+](=O)[O-])cc2nc1O)C(=O)Nc1nc2ccc([N+](=O)[O-])cc2s1", "assignedClass": -1}
{"molecule": "Cc1cccc(C)c1NC(=O)CCCC(=O)C1/C(=N/NC(=O)CC#N)CCC/C1=N\\NC(=O)CC#N (stereo not given)", "assignedClass": -1}
{"molecule": "CCCCCC/C=C\\CCCCCCCCCC1=CC(=O)C=C(OC)C1=O [IRISQUINONE A]", "assignedClass": -1}
{"molecule": "c1ccc2c3c(ccc2c1)CSCc1ccc2ccccc2c1-3", "assignedClass": -1}
{"molecule": "COc1ccc(N2C(=O)c3c4c(c5c([nH]c6ncccc65)c3C2=O)CCC(C(C)(C)C)C4)cc1 (stereo not given)", "assignedClass": -1}
{"molecule": "O=C1NC2CCCCC2NC1=C(C(=O)c1ccccc1)C(=O)c1ccccc1 (stereo not given)", "assignedClass": -1}
{"molecule": "CC1=NN(c2nc(N)nc(CN3CCOCC3)n2)C(C)(C)C1", "assignedClass": -1}
{"molecule": "NNC(=S)N/N=C(/C(=O)Nc1cc(Cl)ccc1Cl)C1C(=O)Nc2ccccc2[S+]1[O-] (stereo not given)", "assignedClass": -1}
{"molecule": "CCCCCCCc1cc(OC(=O)c2c(C)cc(OC)cc2O)cc(O)c1C(=O)O", "assignedClass": -1}
{"molecule": "CCCCCCCCCC/C=C/C=O", "assignedClass": -1}
{"molecule": "N#CCC(=O)N/N=C1/C(=O)N(c2ccc(Cl)cc2)C(=O)C(=O)C1c1nc2ccccc2s1 (stereo not given)", "assignedClass": -1}
{"molecule": "CC1(c2nc3ccccc3[nH]2)CCC(CO)C(C)(C)O1 (stereo not given)", "assignedClass": -1}
{"molecule": "COc1ccc(-c2c3c(n(C4OC(COC(C)=O)C(OC(C)=O)C(OC(C)=O)C4OC(C)=O)c(=S)c2C#N)CCCC3)cc1 (stereo not given)", "assignedClass": -1}
{"molecule": "Cc1noc(C)c1CCCOC1COc2ccccc2OCCOCCOc2ccccc2OC1", "assignedClass": -1}
{"molecule": "CN(C(=O)C1CC1)C1C2CN3CCC(O2)C13 (stereo not given)", "assignedClass": -1}
{"molecule": "O=C(CSCC(=O)N/N=C\\c1cccc([N+](=O)[O-])c1)N/N=C\\c1cccc([N+](=O)[O-])c1", "assignedClass": -1}
{"molecule": "O=C(COc1ccc(Cl)cc1)N1N=C(c2ccc([N+](=O)[O-])o2)CC1(O)c1ccccc1 (stereo not given)", "assignedClass": -1}
{"molecule": "N#Cc1ccnc(C(=O)N2CCCC2C(=O)O)c1 (stereo not given)", "assignedClass": -1}
{"molecule": "CC1=C2[C@@H](c3ccccc3)C3C=CC2(C=C3C(F)(F)F)N(C(=O)NC2CCCCC2)C1=O (stereo not given in full)", "assignedClass": -1}
{"molecule": "COc1ccc2nc3cc([N+](=O)[O-])ccc3c(NNc3ccccc3)c2c1", "assignedClass": -1}
{"molecule": "COC(=O)C1C=NNC1C(=O)OC (stereo not given)", "assignedClass": -1}
{"molecule": "Cc1c2cccc-2c(OCCO)cc2c1[nH]c1ccccc12", "assignedClass": -1}
{"molecule": "CC(C)c1ccc(/C=C(\\NC(=O)c2ccccc2)c2nc3ccccc3[nH]2)cc1", "assignedClass": -1}
{"molecule": "O=C(/C=C/c1c(O)nc2ccccc2c1O)CC(=O)C(=O)Nc1cccc(O)c1", "assignedClass": -1}
{"molecule": "OC1CCN2Cc3ccccc3N=C12 (stereo not given)", "assignedClass": -1}
{"molecule": "C1OCC2S[C@@H]3COCO[C@@H]3C2O1 (stereo not given in full)", "assignedClass": -1}
{"molecule": "CC(=O)NC1(C)CCC(C(C)(C)NC(C)=O)CC1 (stereo not given)", "assignedClass": -1}
{"molecule": "Cc1cc(=O)oc2c(CNC(CC(C)C)C(=O)O)c(O)ccc12 (stereo not given)", "assignedClass": -1}
{"molecule": "CCOC(=O)/C(=N/Nc1ccccc1)N1C(=S)N(C)N=C(C)C=C1S", "assignedClass": -1}
{"molecule": "COc1ccc(/C=N/n2cnc3[nH]c(C)c(Cc4ccccc4)c3c2=N)cc1", "assignedClass": -1}
{"molecule": "CC(C)(C)c1ccc2c(c1)CNCCNCCNCc1cc(C(C)(C)C)ccc1OCC1(CO2)COc2ccc(C(C)(C)C)cc2CNCCNCCNCc2cc(C(C)(C)C)ccc2OC1", "assignedClass": -1}
{"molecule": "COCCOc1nc(-c2ccccc2)nc2ccccc12", "assignedClass": -1}
{"molecule": "Cc1ccc(NC(=O)C(=O)C2C(=O)NC(=O)NC2=O)cc1C", "assignedClass": -1}
{"molecule": "c1ccc(C2C3=C(Nc4ncnn42)c2ccccc2C3)cc1 (stereo not given)", "assignedClass": -1}
{"molecule": "O=C(CCC=C(S(=O)(=O)c1ccccc1)S(=O)(=O)c1ccccc1)c1ccccc1", "assignedClass": -1}
{"molecule": "C/C(CN1C(=O)c2ccccc2C1=O)=N\\NS(=O)(=O)c1ccc(F)cc1", "assignedClass": -1}
{"molecule": "CC1=C2O[C@]3(O)C=C2C(=C(O)C1=O)[C@@H]1O[C@H](CC[C@H](C)/C=C(\\C)C[C@@H](C)C[C@@H]3C)[C@H](C)[C@H](O)[C@H]1C [KENDOMYCIN]", "assignedClass": 1}
